# assay target: huCD28 (human, UniProt P10747 19-152, limits assumed)
# assay: SPR, OAA format
Here, each record is paired with measured pKd data.
For clarity, pKd is expressed as the negative log10 of concentration in mol/L.

Solved cases (2 shown):
v37890 (antibody, V domains shown, OAA format as v34891; also called huTN228 A1024T (VH) OAA) VH: QVQLQESGPGLVKPSETLSLTCTVSGFSLTSYGVHWIRQPPGKGLEWLGVIWPGGGTNFNSALMSRLTISEDTSKNQVSLKLSSVTAADTAVYYCARDRAYGNYLYAMDYWGQGTLVTVSS VL: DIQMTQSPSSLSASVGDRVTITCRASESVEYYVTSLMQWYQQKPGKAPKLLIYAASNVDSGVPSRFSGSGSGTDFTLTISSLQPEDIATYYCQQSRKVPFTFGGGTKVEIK    7.24
v37874 (antibody, V domains shown, OAA format; also called huTN228 N1066A (VL) OAA) VH: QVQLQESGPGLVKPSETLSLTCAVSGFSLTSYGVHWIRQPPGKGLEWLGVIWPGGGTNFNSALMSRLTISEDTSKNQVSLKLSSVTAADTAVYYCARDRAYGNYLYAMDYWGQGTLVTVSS VL: DIQMTQSPSSLSASVGDRVTITCRASESVEYYVTSLMQWYQQKPGKAPKLLIYAASAVDSGVPSRFSGSGSGTDFTLTISSLQPEDIATYYCQQSRKVPFTFGGGTKVEIK    7.28

Here is the next item to consider.
For v37897 (antibody, V domains shown, OAA format as v34891; also called huTN228 V1087F (VH) OAA) VH: QVQLQESGPGLVKPSETLSLTCAVSGFSLTSYGVHWIRQPPGKGLEWLGVIWPGGGTNFNSALMSRLTISEDTSKNQFSLKLSSVTAADTAVYYCARDRAYGNYLYAMDYWGQGTLVTVSS VL: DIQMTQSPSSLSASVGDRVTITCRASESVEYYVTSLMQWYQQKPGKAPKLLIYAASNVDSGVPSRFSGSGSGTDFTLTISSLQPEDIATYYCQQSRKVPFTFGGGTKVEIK , what is its reported pKd?
7.11
